experiment: plasmodial surface anion channel blockers, osmotic lysis – cell-based, P. falciparum Indochina, OD700, 2 h, primary screen (AID 1155);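 further: lysis reports solute entry through the parasite surface anion channel PSAC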; conditions: P. falciparum Indochina infected erythrocytes, higher = more signal, called active from +8 up or from −8 down
observation type: z-score
# output: bare number, no unit

>>> numeric_value("CS(=O)(=O)CCOC(=O)C1=CC(CCCO)=CC(c2ccc(CN3CCCC3)cc2)N(Cc2sc3ccccc3c2Cl)C=C1C(=O)OCCS(C)(=O)=O (centres undefined)")
0.586
>>> numeric_value("COc1ccc(C#Cc2ccc3c(c2)[C@]2(C(=O)N3)[C@H](c3ccc(OCCO)cc3)N3[C@H](c4ccccc4)[C@H](c4ccccc4)OC(=O)[C@H]3[C@@H]2C(=O)NC[C@H](O)c2ccccc2)cc1")
1.76
>>> numeric_value("CN(C)CCCCCCNC(=O)[C@@H]1C[C@@H]2C(=O)N3CCC[C@H]3C(=O)N2[C@@H]1c1cccc(OCCO)c1")
0.456

Proceeding to the next molecule to report its z-score.
Qu. Which z-score value belongs to CC(=O)N1CC2(CC2)CC1c1ccccc1 (centres undefined) ?
Ans. 0.635

---

assay: probe aShh binding to arrayed compounds – biochemical, biotinylated probe, 635/667 nm fluorescence, primary screen (AID 1114); conditions: small-molecule microarray, higher = more signal;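 further: probe is biotin-labelled aShh protein from a stem cell growth factor screen; measures binding of labelled protein to compounds printed on the slide; score merges feature fluorescence at 667 nm with signal-to-noise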
observation type: composite z-score
# output: bare number, no unit

# annotated cases, reported composite z-score shown
>>> numeric_value("CO[C@H]1O[C@H](CO)[C@@H](OC(=O)Nc2ccc(Br)cc2)[C@@H]2OC(=O)[C@@H](Cc3ccccc3)C/C=C/C[C@H](Cc3ccccc3)C(=O)O[C@@H]12")
0.0483
>>> numeric_value("COc1ccc([Si](C)(C)[C@H]2[C@H](CC(=O)N3CCC[C@H]3CO)O[C@@]3(C(=O)N(Cc4ccc(N5CCOC5=O)cc4)c4ccccc43)[C@@H]2C)cc1")
-0.223
>>> numeric_value("C=CCNC(=O)[C@@H]1[C@H]2C(=O)O[C@H](c3ccccc3)[C@H](c3ccccc3)N2[C@H](c2ccc(O)cc2)[C@@]12C(=O)N(C(=O)OCCOC)c1ccc(C#CC3=CCCCC3)cc12")
-0.0769

Qu. Which composite z-score value belongs to `C=CC[C@@H](OC(=O)Nc1ccc(SC)cc1)c1ccc(O)c(F)c1` ?
Ans. 0.42

Qu. Which composite z-score value belongs to Cn1cccc1C(O)C1C=CC2C(=O)N(c3ccccc3)C(=O)C2N1Nc1ccccc1 (centres undefined) ?
Ans. -0.0578

Qu. Which composite z-score value belongs to `NC(=O)NCC#Cc1ccc2c(c1)[C@]1(C(=O)N2)[C@H](c2ccccc2OCCO)N2[C@H](c3ccccc3)[C@H](c3ccccc3)OC(=O)[C@H]2[C@@H]1C(=O)NC[C@H](O)c1ccccc1` ?
Ans. 0.0141

Qu. Which composite z-score value belongs to `O=C(NCc1ccc(F)cc1)[C@H]1C[C@H]2C(=O)NCC(=O)N2[C@H]1c1ccc(O)cc1` ?
Ans. -0.0553

Qu. Which composite z-score value belongs to CC1CC/C=C\[C@H]2OC34C=CCN(Cc5ccccc5)C(=O)[C@H]3N(C(CO)C(C)C)C(=O)[C@@H]4C2C(=O)O1 (some centres undefined) ?
Ans. -0.0709

Qu. Which composite z-score value belongs to `O=C1[C@H]2C=C(I)[C@H](C[C@@H]2OCCOCCO)[C@@]12CO2` ?
Ans. -0.243

Qu. Which composite z-score value belongs to `CCOC(=O)C[C@H]1[C@H](OC(=O)c2ccccc2-c2ccccc2)[C@@H](NC(=O)c2ccc3ccccc3c2)c2cc(OCCCO)ccc2N1C(=O)c1ccccc1` ?
Ans. -0.291

Qu. Which composite z-score value belongs to `COc1ccc([Si](C)(C)[C@@H]2[C@@H](CCO)O[C@]3(C(=O)N(Cc4ccccc4)c4ccc(NC(=O)[C@H](C)O)cc43)[C@H]2C)cc1` ?
Ans. -0.0738

Qu. Which composite z-score value belongs to `CCCNC(=O)[C@@H]1c2ccccc2C(=O)N(Cc2ccc(OC(F)(F)F)cc2)[C@H]1c1ccc(CO)cc1` ?
Ans. 0.292

Qu. Which composite z-score value belongs to `NCCCCCCNC(=O)[C@@H]1C[C@@H]2C(=O)N[C@@H](CCCCN)C(=O)N2[C@@H]1c1ccc(O)cc1` ?
Ans. 0.12

Qu. Which composite z-score value belongs to `COCCCNC(=O)[C@@]1(Sc2ccc(C)cc2)CC(=O)N(C2Cc3ccccc3C2)[C@@H]1c1ccc(CO)cc1` ?
Ans. -0.2

---

target: Dihydroorotate dehydrogenase (quinone), mitochondrial (Plasmodium falciparum (isolate 3D7)) (UniProt Q08210); experiment: inhibition of P. falciparum DHODH – biochemical, C-terminal His tag, absorbance 600 nm, primary screen (AID 1175); conditions: PfDHODH enzyme, DCIP absorbance 600 nm; higher = more signal, called active from +8 up or from −8 down;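 further: recombinant parasite enzyme with a five histidine tag at its C terminus; test concentration not given here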
Sequence (Q08210 whole entry, looked up): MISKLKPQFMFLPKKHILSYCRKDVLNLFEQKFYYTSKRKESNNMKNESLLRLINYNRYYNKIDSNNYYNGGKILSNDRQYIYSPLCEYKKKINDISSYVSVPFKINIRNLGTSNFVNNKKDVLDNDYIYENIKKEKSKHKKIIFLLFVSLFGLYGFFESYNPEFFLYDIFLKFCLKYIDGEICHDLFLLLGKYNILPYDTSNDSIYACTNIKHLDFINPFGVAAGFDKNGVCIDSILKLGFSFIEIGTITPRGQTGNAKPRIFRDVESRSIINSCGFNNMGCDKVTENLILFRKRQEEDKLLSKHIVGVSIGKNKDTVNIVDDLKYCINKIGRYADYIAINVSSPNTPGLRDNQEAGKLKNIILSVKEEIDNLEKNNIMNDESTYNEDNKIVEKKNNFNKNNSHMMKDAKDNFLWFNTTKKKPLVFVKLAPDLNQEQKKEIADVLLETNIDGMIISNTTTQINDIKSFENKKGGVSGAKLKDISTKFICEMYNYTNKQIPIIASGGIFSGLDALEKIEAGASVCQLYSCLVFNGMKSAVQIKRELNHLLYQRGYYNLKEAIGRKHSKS
Class membership depends on composite z-score alone; the intervals are lo = under -0.7, mid = from -0.7 up to -0.1, hi = -0.1 and over

// below: answered compounds
>>> class_assignment("C=CCNC(=O)[C@@H]1[C@H]2C(=O)O[C@H](c3ccccc3)[C@H](c3ccccc3)N2[C@H](c2ccc(O)cc2)[C@@]12C(=O)N(C(=O)OCCOC)c1ccc(C#CC3=CCCCC3)cc12")
"hi"
>>> class_assignment("Cc1ccc(S[C@]2(C(=O)NCC(F)(F)F)CC(=O)N(Cc3cc(C(F)(F)F)cc(C(F)(F)F)c3)[C@@H]2c2ccc(CO)cc2)cc1")
"lo"
>>> class_assignment("C=C[C@H](C)[C@H](OC(=O)Nc1ccc(SC)cc1)c1ccc(OCCO)cc1")
"lo"
>>> class_assignment("CS(=O)(=O)CCOC(=O)C1=CC(c2ccc(CO)cc2)=CC(C2CC2)N(Cc2sc3ccccc3c2Cl)C=C1C(=O)OCCS(C)(=O)=O (configuration not stated)")
"lo"
>>> class_assignment("C#CCN([C@@H](Cc1ccccc1)C(=O)OC)[C@@H](/C=C/C1CC1)[C@H](O)Cc1ccccc1")
"mid"

Qu. Class for `C=C[C@@H](OC)[C@H](OC(=O)Nc1ccc(OC)cc1)c1ccc(O)c(F)c1` ?
Ans. lo

Qu. Class for `Cc1ccc(S[C@]2(C(=O)NC(C)C)CC(=O)N(Cc3cc(C(F)(F)F)cc(C(F)(F)F)c3)[C@@H]2c2ccc(CO)cc2)cc1` ?
Ans. lo

Qu. Class for `COC(=O)C/C=C/C[C@]1(O)C(=O)N(C)c2ccccc21` ?
Ans. mid

Qu. Class for `CC(C)[Si]1(C(C)C)OCc2cc(C3CC3)nc(-c3ccc(Oc4ccccc4)cc3)c21` ?
Ans. hi

Qu. Class for O=C1OCCC=C[C@H]2OC34C=CCN(Cn5nnc6ccccc65)C(=O)[C@H]3N(CCCO)C(=O)[C@@H]4C12 (some centres not stated) ?
Ans. mid

Qu. Class for `CC(C)N1C(=O)C[C@@](C(=O)NC2CC2)(c2ccc([N+](=O)[O-])cc2)[C@H]1c1ccc(CO)cc1` ?
Ans. mid

Qu. Class for `COCC(=C=CC[C@H](O)c1ccccc1OCCO)C[C@H](O)c1ccccn1` ?
Ans. lo

Qu. Class for COC(=O)C1=CC(CCCO)=CC(c2ccc(CN3CCCC3)cc2)N(Cc2cccc(OC(F)(F)F)c2)C=C1C(=O)OC (configuration not stated) ?
Ans. lo

Qu. Class for `CC(C)[Si](C#CCCCC#N)(O[C@H](c1ccccc1)c1cn(Cc2ccccc2)nn1)C(C)C` ?
Ans. hi

Qu. Class for `COC(=O)[C@@]1(Cc2ccc(F)cc2)[C@H]2c3cc(C(=O)N(C)C)n(Cc4ccc(OC(F)(F)F)cc4)c3C[C@H]2CN1C(=O)c1ccccc1` ?
Ans. hi

Qu. Class for `COC(=O)[C@@]1(Cc2ccccc2)[C@H]2c3cc(C(=O)N4CCCC4)n(CCc4ccccn4)c3C[C@H]2CN1C(=O)c1ccccc1` ?
Ans. mid

Qu. Class for `CCCC[C@@H](O)C1=C(COC)C[C@H]2C(=O)N(C)C(=O)[C@H]2[C@H]1CO` ?
Ans. lo

Qu. Class for CN1C(=O)C2C=CC(C(O)c3cccn3C)N(Nc3ccc([N+](=O)[O-])cc3[N+](=O)[O-])C2C1=O (configuration not stated) ?
Ans. mid

Qu. Class for CCCCC(O)C1C=CC2C(=O)N(C)C(=O)C2N1N(c1ccccc1)c1ccccc1 (configuration not stated) ?
Ans. mid

Qu. Class for O=C(C1N=C(c2ccc(OCCCO)cc2)N(c2ccccc2)O1)N1CCCCC1 (configuration not stated) ?
Ans. mid

Qu. Class for `COCCOC(=O)N1C(=O)[C@@]2(c3ccccc31)[C@H](C(=O)NC[C@H](O)c1ccccc1)[C@H]1C(=O)O[C@H](c3ccccc3)[C@H](c3ccccc3)N1[C@@H]2c1ccc(O)cc1` ?
Ans. hi

Qu. Class for `[N-]=[N+]=Nc1ccccc1[C@@H]1OC(c2ccc(OCCCO)cc2)=N[C@]1(Cc1ccccc1)C(=O)N1CCCCC1` ?
Ans. mid

Qu. Class for CC(C)c1ccc(NN2C(C(O)c3ccc(C#N)cc3)C=CC3C(=O)N(c4ccccc4)C(=O)C32)cc1 (configuration not stated) ?
Ans. hi

Qu. Class for C=CCC(OC(C)=O)[C@@H]1[C@@H](N(Cc2cc3ccccc3o2)C(=O)Cc2ccc(F)cc2)c2cc(OCCCO)ccc2N1C(=O)Cc1ccc2ccccc2c1 (some centres not stated) ?
Ans. lo

Qu. Class for `CC(C)C[C@@H]1NC(=O)[C@@H]2C[C@H](C(=O)NCCCCCCN)[C@H](c3cccc(OCCO)c3)N2C1=O` ?
Ans. hi

Qu. Class for OCCCC1=CC(c2ccc(CN3CCCC3)cc2)N(Cc2cc3c(cc2Br)OCO3)CC1 (configuration not stated) ?
Ans. hi

Qu. Class for `CC(C)NC(=O)[C@@]1(c2ccc([N+](=O)[O-])cc2)CC(=O)N(C2CCCCC2)[C@@H]1c1ccc(CO)cc1` ?
Ans. hi
